target: APOL1 G2 (Homo sapiens, UniProt O14791, DEL388-389); test: Rescue of HEK293 cell death caused by overexpression of APOL1 (CellTiter-Glo luminescence), HEK293/T-REx APOL1 G2/clone #2; conditions: reversal of cell death caused by overexpression of APOL1; geometric mean of at least 2 assay runs, † = single assay run (technical duplicate)
Sequence (O14791 with tags, fused parts or gaps DEL388-389): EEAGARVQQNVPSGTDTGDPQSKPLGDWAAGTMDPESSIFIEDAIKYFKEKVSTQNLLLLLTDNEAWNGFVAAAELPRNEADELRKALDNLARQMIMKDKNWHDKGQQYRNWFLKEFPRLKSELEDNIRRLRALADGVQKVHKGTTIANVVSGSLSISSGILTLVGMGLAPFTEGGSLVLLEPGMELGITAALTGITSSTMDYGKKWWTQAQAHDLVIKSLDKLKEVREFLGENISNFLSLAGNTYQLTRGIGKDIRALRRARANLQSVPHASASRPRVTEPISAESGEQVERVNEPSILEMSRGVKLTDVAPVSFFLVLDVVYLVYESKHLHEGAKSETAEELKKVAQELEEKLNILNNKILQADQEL

Compound: CS(=O)(=O)c1ccc(OC[C@H](O)CNCCc2cccc(Cl)c2)cc1
Measurement units: µM
EC50: 8.37

Compound: Cc1c(C#N)cc(Cl)cc1CCN1C[C@@H](COc2ccc(S(C)(=O)=O)cc2)C[C@H]1C
Measurement units: µM
EC50: 0.0789

Compound: CS(=O)(=O)c1ccc(OCC2CN(CCc3cccc(Cl)c3)CCC2O)cc1 (racemic) [Compound 28]
Measurement units: µM
EC50: 2.34

Compound: C[C@@H]1C[C@H](COc2ccc(S(=O)(=O)CCCS(C)(=O)=O)cc2)CN1CCc1cc(Cl)cc(C#N)c1
Measurement units: µM
EC50: 0.0341
